# Test system: SW-620 colon
# measurement.protocol: NCI-60 one-dose screen, 48 h
# test.conditions: 10 µM unless noted
About 83,000 compounds went through this panel and 20% of them were active in at least one assay; those are over-represented in the sample as a whole. The source made the active and inactive calls. The calls were made as follows: active = growth percent below 10; inactive = the rest.
Please state which outcome applies, choosing from class 1 (active), class 0 (inactive)

Reference set (3 entries):
>>> group("COC(=O)[C@H](CC(C)C)NC(=O)NC(=O)NC(=O)CI")
"class 1"
>>> group("CC1(C)CC[C@]2(C(=O)O)CC[C@]3(C)[C@H](CC[C@@H]4[C@@]5(C)CCC(=O)C(C)(C)[C@@H]5CC[C@]43C)[C@H]2[C@H]1OC(=O)C(F)(F)F")
"class 1"
>>> group("O=C1COCCN1c1ccc(Nc2nc(Cl)nc(N3CCOCC3)n2)cc1")
"class 0"

Query string: Per the records of this test, what outcome belongs to Cc1ccccc1OC(=O)c1cccc(Cl)c1 ?
Result string: class 0

Query string: Per the records of this test, what outcome belongs to O=C1Nc2ccccc2/C1=C/C(=O)c1ccc(N2CCCCC2)cc1 ?
Result string: class 1

Query string: Per the records of this test, what outcome belongs to CCCCCCNC(=O)Nc1ncnc2c1ncn2-c1ccccc1 ?
Result string: class 0

----------
# Test system: DU-145 prostate
# measurement.protocol: NCI-60 one-dose screen, 48 h
# test.conditions: 10 µM unless noted
# Method: Cells are grown in 96 well plates and exposed to the test compound for 48 hours. Compounds are tested at a single concentration, which is 10^-5 M for most compounds. The reported endpoint is percent growth (GI% or GIPRCNT), where numbers from 0 - 100% represent growth inhibition, and numbers from -100% - 0 represent cell death. For example, a value of 40 represents 60% growth inhibition. A value of 0 means no net growth occurred over the course of the experiment. […]
Compounds without any hit were thinned out: in the full panel of roughly 83,000, 20% have a hit. Calls of active or inactive are those of the source. The calls were made as follows: active = growth percent below 10; inactive = the rest.
Please state which outcome applies, choosing from active, inactive

Reference set (8 entries):
>>> group("Cn1cc(-c2noc(-c3cn(C)c4ncccc34)n2)c2cc(Cl)ccc21")
"inactive"
>>> group("O=[N+]([O-])c1cccc(N=NNc2cccc([N+](=O)[O-])c2)c1")
"inactive"
>>> group("CC1(C)C(=NO)C(C)(C)C1=NO")
"inactive"
>>> group("O=C(Nc1cc(F)cc2cccnc12)c1cnc(N2CCNCC2)cn1")
"inactive"
>>> group("N#CC1C(=O)NC(c2ccccc2[N+](=O)[O-])c2sc3c(F)cccc3c21 (centres undefined)")
"inactive"
>>> group("CCOC(=O)c1c[nH]c2cc(OCC3CC3)c(OCC3CC3)cc2c1=O")
"inactive"
>>> group("CC[C@]12C=CCN3CC[C@@]4(c5ccc(OC)cc5N(C)[C@H]4[C@@](O)(C(=O)OC)[C@@H]1OC(=O)CCC(=O)O[C@H]1CC[C@H]4[C@@H]5CCC6=CC(=O)CC[C@@H]6[C@H]5CC[C@]14C)[C@@H]32")
"inactive"
>>> group("CCN=Cc1c(O)c(O)c(C(C)C)c2cc(C)c(-c3c(C)cc4c(C(C)C)c(O)c(O)c(C=NCC)c4c3O)c(O)c12")
"inactive"

Query string: Per the records of this test, what outcome belongs to Cc1cc2c(C(C)C)c(O)c(O)c(C=NCc3ccoc3)c2c(O)c1-c1c(C)cc2c(C(C)C)c(O)c(O)c(C=NCc3ccco3)c2c1O ?
Result string: inactive

----------
# growth annotations
# Test system: SF-295 CNS
# measurement.protocol: NCI-60 one-dose screen, 48 h (100 = growth as untreated, 0 = no growth, -100 = all killed)
# test.conditions: 10 µM unless noted
The panel holds about 83,000 compounds, 20% with a hit somewhere; the sample as a whole holds those more often.
Write the number in % without appending the unit.

Some compounds with known growth results, for comparison:
>>> result_value("CC(C)CCSC1=CC(=O)c2ccccc2C1=O")
103
>>> result_value("CC(C)C1=NOC(=O)C1=Cc1cn(-c2ccco2)nc1-c1ccccc1")
99.2
>>> result_value("C=CCCC1(C)NC(=O)NC1=O (stereo not given)")
95.7

Query string: Name the recorded growth for CSc1nc(=S)c2nc(SC)n(-c3ccccc3)c2[nH]1 .
Result string: 105

Query string: Name the recorded growth for N#Cc1c(N2CCOCC2)nc(=S)[nH]c1-c1ccco1 .
Result string: 47.4

Query string: Name the recorded growth for COc1ccc2nc3c(cc2c1)C(=O)CC(C(F)(F)F)C3 (stereo not given) .
Result string: 45.3

Query string: Name the recorded growth for c1ccc(-c2nc(N3CCCNCC3)c3nc(-c4ccccc4)oc3n2)cc1 .
Result string: 96.2

Query string: Name the recorded growth for O=C(NCCO)c1cccnc1 .
Result string: 101

Query string: Name the recorded growth for O=C1C(Cl)=C(Nc2ccc3cn[nH]c3c2)C(=O)c2ccccc21 .
Result string: 5.88

Query string: Name the recorded growth for Cc1nc(Cl)c2c(n1)N(C)c1ccc(Cl)cc1C(C)C2 (stereo not given) .
Result string: 91.2

Query string: Name the recorded growth for COc1cc2c(=O)[nH]c3cc([N+](=O)[O-])ccc3c2cc1[N+](=O)[O-] .
Result string: 47.9

Query string: Name the recorded growth for COc1ccc(NC(=O)Nc2ccc(-c3cccnc3)cc2N2CCC(CO)CC2)cc1 .
Result string: 32

Query string: Name the recorded growth for CN(C)c1cc(NN=C(c2ccc(O)cc2)c2ccc(O)cc2)c([N+](=O)[O-])cc1[N+](=O)[O-] .
Result string: 79.3

Query string: Name the recorded growth for CC(C)CSc1ncnc2nc[nH]c12 .
Result string: 103

Query string: Name the recorded growth for CC[C@@H]1NC(=O)[C@@H]2CCCCN2C(=O)[C@@H]2CCCN2C(=O)[C@@H](NC(=O)[C@H](Cc2cc(F)cc(F)c2)NC(=O)Nc2ccc(C3CC3)cc2F)[C@H](C)OC(=O)[C@@H]2C[C@@H](C)CN2C1=O .
Result string: -10.1

Query string: Name the recorded growth for COc1ncc(-c2ccc3nccc(C#CCCCCC(=O)O)c3c2)cc1NS(=O)(=O)c1ccc(F)cc1F .
Result string: 6.94

Query string: Name the recorded growth for CCn1cc(-c2[nH]c(=S)ncc2-c2ccc(Cl)cc2)c(-c2ccc(Br)cc2)n1 .
Result string: 68.4

----------
# Test system: SN12C renal
# measurement.protocol: NCI-60 one-dose screen, 48 h
# test.conditions: 10 µM unless noted
The panel holds about 83,000 compounds, 20% with a hit somewhere; the sample as a whole holds those more often. Active and inactive are the calls of the source. How the source made its calls: active means growth percent below 10; inactive means the rest.
Please state which outcome applies, choosing from active, inactive

Query string: Per the records of this test, what outcome belongs to O=C(Nc1cccnc1)c1ccc2ccc3ccc(C(=O)Nc4cccnc4)nc3c2n1 ?
Result string: inactive

Query string: Per the records of this test, what outcome belongs to CO[C@H]1CC[C@@]2(C)C(=CC[C@H]3[C@@H]4C[C@H](O)C[C@@]4(C)CC[C@@H]32)C1 ?
Result string: inactive

Query string: Per the records of this test, what outcome belongs to C=C(C)[C@@H]1CC[C@]2(C(N)=O)CC[C@]3(C)[C@H](CC[C@@H]4[C@@]5(C)CC[C@H](O)C(C)(C)[C@@H]5CC[C@]43C)[C@@H]12 ?
Result string: active

Query string: Per the records of this test, what outcome belongs to CC(C)C1=NOC(=O)C1=Cc1cn(-c2ccco2)nc1-c1ccccc1 ?
Result string: inactive

Query string: Per the records of this test, what outcome belongs to CCOC(=O)c1ccc2nc(-c3c(C)nn(-c4ccccc4)c3N3CCOCC3)[nH]c2c1 ?
Result string: inactive

----------
# Tested on: KM12 colon
# measurement.protocol: NCI-60 one-dose screen, 48 h (100 = growth as untreated, 0 = no growth, -100 = all killed)
# test.conditions: 10 µM unless noted
About 83,000 compounds went through this panel and 20% of them were active in at least one assay; those are over-represented in the sample as a whole. The source made the active and inactive calls. Rule for the calls: active = growth percent below 10; inactive = the rest.
observed.property: growth

Some compounds with known growth results, for comparison:
>>> result_value("C=C(C)[C@@H]1CC[C@]2(C)[C@H](CC[C@@H]3[C@@H]([C@@](C)(O)CCC=C(C)C)CC[C@]32C)[C@@]1(C)CCC(=O)O")
"-55.2% [100 µM] (active)"
>>> result_value("O=C(N/N=C/c1ccc([N+](=O)[O-])cc1)c1ccc(Br)o1")
"126% (inactive)"
>>> result_value("C=C(C)[C@@H]1CC[C@]2(C(=O)NCCCN)CC[C@]3(C)[C@H](CC[C@@H]4[C@@]5(C)CC[C@H](O)C(C)(C)[C@@H]5CC[C@]43C)[C@@H]12")
"-25.3% [100 µM] (active)"

Query string: Name the recorded growth for O=C(O)CC1CCCCC1c1ccccc1 (centres undefined) .
Result string: 110% (inactive)
